Where do the numbers come from? From patent US20100323975A1.

# Protocol details: Solubility in water at 25° C.
# Type: physicochemical
Peptide text beside a SMILES is read from it.
Attribute measured: solubility

Query: Give the measured solubility of C[C@H](N)C(=O)N[C@@H](Cc1c[nH]cn1)C(=O)O [L-alanyl-L-histidine] (H-Ala-His-OH) .
Response: ≥ 3500 mM

Query: Given the molecule NCC(=O)N[C@@H](Cc1c[nH]cn1)C(=O)O [glycyl-L-histidine] (H-Gly-His-OH) , what is its reported solubility?
Response: ≥ 3500 mM
